Ref: paper PMC9482650

targetOfAssay: T1, TX1BP3, O14907
T1 sequence (O14907 10-122, limits assumed, looked up): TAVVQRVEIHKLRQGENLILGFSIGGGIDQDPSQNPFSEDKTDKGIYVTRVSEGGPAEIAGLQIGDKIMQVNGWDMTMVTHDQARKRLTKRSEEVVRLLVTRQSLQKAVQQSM
assayOverview: holdup assay
Set-up: key: below the threshold = too weak to quantify, mostly under pKd 3.1 to 4
conditionInfo: plain residues with an end cap or a label only (N-terminal biotin on a linker: ado-ado)
Please provide measured pKd for the entries that follow.
One number for each entry.

In: # lookup: pKd of KSRVAFFEEL [NF2, P35240;P35240-1]
Out: 4.34

I would be grateful if you could provide pKd for each of the following entries.
1. ARESQKVSHV [FAM110B, Q8TC76]
2. QSYPSKHDYV [CLDN18, P56856]

Out:
1: 4.9; 2: 4.17
